All figures here come from patent US20220402917A1.

Biological target: PD1/PD-L1 (Homo sapiens, UniProt Q9NZQ7)
Sequence (Q9NZQ7 19-290): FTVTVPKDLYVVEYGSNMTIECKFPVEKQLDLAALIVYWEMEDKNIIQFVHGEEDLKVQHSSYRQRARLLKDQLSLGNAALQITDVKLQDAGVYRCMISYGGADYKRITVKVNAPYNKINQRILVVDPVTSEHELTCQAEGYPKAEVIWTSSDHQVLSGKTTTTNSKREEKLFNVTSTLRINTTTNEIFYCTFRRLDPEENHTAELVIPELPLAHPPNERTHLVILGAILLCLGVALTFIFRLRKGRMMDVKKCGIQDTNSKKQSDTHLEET
Test: NFAT activity test (TCR Activitor/PD-L1 CHO cells with PD-1/NFAT Reporter-Jurkat cells)
Format: cell-based
Parameters: host or cells: TCR Activitor/PD-L1 CHO cells; PD-1/NFAT Reporter-Jurkat cells
Conditions: TCR Activitor/PD-L1 CHO cells + PD-1/NFAT Reporter-Jurkat cells, 5 hours, luciferase
attribute-measured: Maximum effect (induction fold)
Answer format: value, then unit.

>>> print(df.to_string())
                                   compound                              assay_system               attribute_measured               result
0  Cc1cc(C(=O)Nc2cccc(-c3cccc(NC(=O)c4ccc(CNCCO)cn4)c3Cl)c2Cl)nc2c1CCN(CCO)C2  PD1/PD-L1 (Homo sapiens, UniProt Q9NZQ7)  Maximum effect (induction fold)  3.68 induction fold

Next, consider the following compound.
Prompt: Give Maximum effect (induction fold) (PD1/PD-L1 (Homo sapiens, UniProt Q9NZQ7)) of the following compound: COc1cc(C(=O)Nc2cccc(-c3cccc(-c4cnc(CNCCO)c(OC)n4)c3Cl)c2Cl)nc2c1CCN(CCO)C2
Response: 3.91 induction fold

----------
Target: PD1/PD-L1 (Homo sapiens, UniProt Q9NZQ7)
Assay: NFAT activity test (TCR Activitor/PD-L1 CHO cells with PD-1/NFAT Reporter-Jurkat cells)
Assay type: cell-based
Design: host or cells: TCR Activitor/PD-L1 CHO cells; PD-1/NFAT Reporter-Jurkat cells
Conditions: TCR Activitor/PD-L1 CHO cells + PD-1/NFAT Reporter-Jurkat cells, 5 hours, luciferase
attribute-measured: Maximum effect (induction fold)
Quick note: give the figure in induction fold, leave out the unit.

In [3]: df
Out[3]:
                                   compound  numeric_value
0  COc1nc(-c2cccc(-c3cccc(NC(=O)c4cc(C)c5c(n4)CN(CCO)CC5)c3Cl)c2Cl)cnc1CN1CC(C)(O)C1           3.39
1  COc1nc(-c2cccc(-c3cccc(NC(=O)c4cc(C#N)c5c(n4)CN(CCO)CC5)c3Cl)c2Cl)cnc1CN1CCC(CO)C1 (stereo not drawn)           4.99
2  Cc1c(NC(=O)c2ccc(CNCCO)cn2)cccc1-c1cccc(NC(=O)c2cc(NCCO)c3c(n2)CN(CCO)CC3)c1Cl           3.77
3  COc1nc(-c2cccc(-c3cccc(NC(=O)c4cc(C)c5c(n4)CN(CC4(CO)CC4)CC5)c3Cl)c2Cl)cnc1CN1CC(O)C1           3.52
4  COc1nc(-c2cccc(-c3cccc(NC(=O)c4cc(C(F)(F)F)c5c(n4)CN(CCO)CC5)c3Cl)c2Cl)cnc1CN1CC(O)C1           5.56

Next, consider the following compound.
Prompt: Give Maximum effect (induction fold) (PD1/PD-L1 (Homo sapiens, UniProt Q9NZQ7)) of the following compound: COc1nc(-c2cccc(-c3cccc(NC(=O)c4cc(OC(F)F)c5c(n4)CN(CCO)CC5)c3Cl)c2Cl)cnc1CN1CCC(CO)C1 (stereo not drawn)
Response: 3.98

----------
Molecular target: PD1/PD-L1 (Homo sapiens, UniProt Q9NZQ7)
Assay: NFAT activity test (TCR Activitor/PD-L1 CHO cells with PD-1/NFAT Reporter-Jurkat cells)
Assay type: cell-based
Design: host or cells: TCR Activitor/PD-L1 CHO cells; PD-1/NFAT Reporter-Jurkat cells
Conditions: TCR Activitor/PD-L1 CHO cells + PD-1/NFAT Reporter-Jurkat cells, 5 hours, luciferase; read-out: IC50, inhibitory activity on PD1/PD-L1 binding (NFAT activity test)
Parameter IC50: see the listing below.
Quick note: give the figure in nM, leave out the unit.

Look over these answered cases.
In [3]: df
Out[3]:
                                   compound  attribute_measured  output_unit  numeric_value
0  COc1nc(-c2cccc(-c3cccc(NC(=O)c4cc(C(F)(F)F)c5c(n4)CN(CCO)CC5)c3Cl)c2Cl)cnc1CN1CC(O)C1 [Compound 46]                IC50           nM            571
1  COc1nc(-c2cccc(-c3cccc(NC(=O)c4cc(C#N)c5c(n4)CN(CCO)CC5)c3Cl)c2Cl)cnc1CN1CC(C)(O)C1 [Compound 58]                IC50           nM            104

Prompt: Quick one: IC50 for Cc1cc(C(=O)Nc2cccc(-c3cccc(NC(=O)c4ccc(CNCCO)cn4)c3Cl)c2C)nc2c1CCN(CCO)C2 [Compound 6] ?
Response: 14.3
